Test system: DU-145 prostate
PROTOCOL: NCI tumour cell line growth inhibition, 48 h
PARAMETER MEASURED: TGI

MOLECULE | ASSAY SYSTEM | PARAMETER MEASURED | VAL
COc1ccc2nc3cc(Cl)ccc3c(NCCNCCCNC(=O)c3cc(-c4ccccc4)nc4ccccc34)c2c1 | DU-145 prostate | TGI | > 100 µM

Incoming: Please tell me: TGI of C[C@]12CC[C@@H]3c4ccc(OC(=O)c5ccccc5)cc4CC[C@H]3[C@@H]1CC[C@@H]2Oc1c2ccccc2nc2ccccc12 , system DU-145 prostate?
Outgoing: 20.3 µM

Incoming: Which TGI is reported with DU-145 prostate for this entry: O=c1[nH]nc(Cc2ccccc2)n1-n1cnnc1 ?
Outgoing: > 100 µM

Incoming: Which measured TGI belongs to CCOC(=O)C(/C=N\C(=S)Nc1ccc(OCC)cc1)=C(/O)c1ccccc1 , tested on DU-145 prostate?
Outgoing: > 100 µM

Incoming: Request: TGI, test system DU-145 prostate, entry COc1cccc(-c2cc(=O)c3ccc(C)nc3[nH]2)c1
Outgoing: 3.7 µM
